Tested on: NCI-H522 lung
assay info: NCI-60 one-dose screen, 48 h
study conditions: 10 µM unless noted
This is part of a sample that, as a whole, favours compounds with a hit. Of some 83,000 tested, about 20% had one in any assay. Active and inactive are the calls of the source. Rule for the calls: active = growth percent below 10; inactive = the rest.
Assign a class; possible classes are y for active, n for inactive

For orientation, consider the following solved cases.
Prompt: How did this test come out for CN1CCN(Cc2ccc(NC(=O)c3cncc(C#Cc4c(N)ncc5c(F)cccc45)c3)cc2C(F)(F)F)CC1 ?
Response: y

Prompt: For this compound, state the assay outcome: CC1(C)CCC[C@]23C(=O)O[C@](O)(C(=O)C4=C[C@@](C)(/C=C/CCCc5ccc6ccc7cccc8ccc5c6c78)CC[C@@]42O)[C@@H]13
Response: y

Prompt: Could you check what this test reported for Cc1ccccc1NC(=O)Cn1cc(CN2CCN(c3ccnc4cc(Cl)ccc34)CC2)nn1 ?
Response: n

Prompt: Per the records of this test, what outcome belongs to CCN1C(=O)N(CC)C2C1NC(=S)N2/N=C/C=C/c1cccs1 (stereo not given) ?
Response: y

Prompt: Give the logged outcome of this assay for the following compound: Cc1ccc2nc(/C=C/c3ccc(N(C)C)cc3)cc(C)c2c1
Response: n

More entries:
Prompt: Which outcome was entered for the compound C=C(c1ccc(OC)c(/C=C/C(=O)c2cc(OC)c(OC)c(OC)c2)c1)c1cc(OC)c(OC)c(OC)c1 in this test?
Response: y

Prompt: Please let me know the test result on file for COc1cc(C(=O)n2nc(NCCCc3ccccc3)c3cc(N)ccc32)cc(OC)c1OC .
Response: n

Prompt: Check the results log: what was the call for COc1cccc2cc(N(C)c3ncnc4ccccc34)ccc12 ?
Response: y

Prompt: Hello, I am checking results. What call was entered for O=C(Oc1ccccc1)c1cc(O)c(O)c(O)c1 ?
Response: n

---

Test system: K-562 leukemia
assay info: NCI-60 one-dose screen, 48 h (100 = growth as untreated, 0 = no growth, -100 = all killed)
study conditions: 10 µM unless noted
About 83,000 compounds went through this panel and 20% of them were active in at least one assay; those are over-represented in the sample as a whole.
Rule: measured growth below 20% gets met; anything equal to or greater than 20% gets not met.

Prompt: Does the reported growth of the following molecule sit strictly below 20%? O=C1NCCS(=O)(=O)/C1=C\C=C\c1cccc(C(F)(F)F)c1
Response: met

New cases:
Prompt: Regarding Cc1nc2ccccc2c(/C=C/c2ccc(Cl)cc2)c1C(=O)/C=C/c1ccccc1 , kindly confirm whether its growth is beneath 20%.
Response: met

Prompt: is_below(growth, 20%) for CCOC(=O)c1cc(C(=O)c2cc(OC)cc(OC)c2)n2ncccc12 ?
Response: met

Prompt: Hello, is growth of the following molecule strictly smaller than 20%? COc1cc2nc3cc([N+](=O)[O-])ccc3c(NCCCNCCO)c2cc1OC
Response: met

Prompt: Lab log: compare recorded growth with 20%; is it strictly lower for CC(=O)Oc1ccccc1C(=O)N(Cc1ccc2c(Cl)cc(Cl)c(O)c2n1)c1ccccc1 ?
Response: not met

Prompt: Decide: growth of CC1(C)CC[C@]2(CO)CC[C@]3(C)[C@H](CC[C@@H]4[C@@]5(C)CC[C@H](O)C(C)(C)[C@@H]5CC[C@]43C)[C@H]2[C@H]1O strictly below 20%?
Response: not met

Prompt: Criterion: growth strictly below 20%. Is it met by O=C(Nc1ccc(Cl)cc1)C1=NCCCCN1 ?
Response: not met

Prompt: Record Cn1cc(-c2csc(-c3cn(CCO)c4ccc(F)cc34)n2)c2cccnc21 : is its growth strictly below 20%?
Response: met

Prompt: growth under 20%? Item: O=c1ccc2nc(-c3ccccc3)nn(-c3ccccn3)c-2c1
Response: met
